FYI, the data here is from ChEMBL document CHEMBL1201862.

system: NCI-H23; test: NCI tumour cell line growth inhibition, 48 h
The source made the active and inactive calls. Rule as the data show it: active = GI50 up to about 1.1 µM and inactive = higher.
A correct response names exactly one class from active, inactive

INSERT INTO measurements (compound, measurementtarget, classname) VALUES
  ('CC(C)(C)c1ccc(Oc2ccc(C#N)c(C#N)c2)c(C(C)(C)C)c1', 'NCI-H23', 'inactive');

Problem: Just curious, what result did CC(C)OC(=O)c1ccc(CCC2=CC(=O)C=CC2=O)cc1 get here?
Result: inactive

Problem: Try the compound c1ccc(CC(Nc2cccnc2)c2ccccc2)cc1 (stereo not drawn)
Result: inactive

Problem: Try the compound CC1(C)CCCC2OC2CCC(C)(C)C1=O (stereo not drawn)
Result: inactive

Problem: Try the compound CC1=C(C(=O)OCCO[N+](=O)[O-])C(c2ccccc2[N+](=O)[O-])C(C(=O)OC(C)C)=C(C)N1 (stereo not drawn)
Result: inactive

Problem: Try the compound O=C1C[C@@H](C(=O)OCc2ccccc2)NC(=O)C[C@@H](C(=O)OCc2ccccc2)NC(=O)C[C@@H](C(=O)OCc2ccccc2)N1
Result: inactive

Problem: Try the compound Oc1cc(Br)cc2cc(Br)cnc12
Result: inactive

Problem: Try the compound CC1(C)C=Cc2c(cc(O)c3c(=O)c4cc(Cl)ccc4[nH]c23)O1
Result: inactive

Problem: Try the compound CCCN(CCCCN1C(=O)c2ccccc2C1=O)CC1COc2ccccc2O1 (stereo not drawn)
Result: inactive

Problem: Try the compound CN1CCN(c2ncc3c(n2)sc2c(=O)n(-c4ccccc4)cnc23)CC1
Result: inactive

Problem: Try the compound C/C(=N\NC(=S)NCc1ccccc1)c1nc2cccnc2[nH]1
Result: inactive

Problem: Try the compound Cc1ccc(S(=O)(=O)Nc2ccccc2C(=O)c2ccc(C)c(C)c2)cc1
Result: inactive

Problem: Try the compound CN1[C@@H]2CCCC[C@H]2N(C)P1(=O)C(O)/C=C/c1ccccc1 (stereo partly drawn)
Result: inactive

Problem: Try the compound N#Cc1c(N2CCOCC2)ncn(-c2ccccc2)c1=O
Result: inactive

Problem: Try the compound CCOC(=O)NC(=O)c1cn(CCCOC(=O)NCCCCCCNC(=O)OCCCn2c(=O)c(C(=O)NC(=O)OCC)cn(C)c2=O)c(=O)n(C)c1=O
Result: inactive

* * *

Recorded GI50 values for a group of compounds are listed next.
tested on: TK-10; experiment: NCI tumour cell line growth inhibition, 48 h
Calls of active or inactive are those of the source. Rule as the data show it: active = GI50 up to about 1.1 µM and inactive = higher.

INSERT INTO assay_data (compound, measurementtarget, val) VALUES
  ('COc1ccc(/C=[N+](\[O-])[C@H](COCc2ccccc2)c2ccccc2)cc1', 'TK-10', '> 100 µM (inactive)'),
  ('O=C(COc1ccc(OCC(=O)N2C(=O)CC(=O)N(c3ccc(Cl)cc3)C2=S)cc1)N1C(=O)CC(=O)N(c2ccc(Cl)cc2)C1=S', 'TK-10', '37.3 µM (inactive)'),
  ('CC(C(=O)[O-])S(=O)(=O)O.CCc1c2cc(OC)c(OC)cc2cc2c3cc(OC)c(OC)cc3cc[n+]12', 'TK-10', '69.7 µM (inactive)'),
  ('Oc1cccc2cc(Br)cnc12', 'TK-10', '35.8 µM (inactive)');

Then this compound:
Problem: Could you share which GI50 value was measured for CC(=O)OC1COC(N2C(=O)C(=O)c3cc(Br)c([N+](=O)[O-])cc32)C(OC(C)=O)C1OC(C)=O (stereo not given) ?
Result: > 100 µM (inactive)
